meta.source: PubChem BioAssay

Assayed system: 6-phosphogluconate dehydrogenase, decarboxylating (Homo sapiens)
Method notes: 6PGD enzyme inhibitors, primary screen, biochemical, human, recombinant enzyme, NADPH absorbance (AID 1159550)
Measurement parameters: recombinant 6PGD, NADPH absorbance 341 nm; at 10 µM; stronger effect = higher value
Where a SMILES comes first, the peptide text is derived from it.

{"Compound": "Oc1ccc([C@H]2Oc3cc(O)cc(O)c3C[C@H]2O)cc1", "inhibition, %": 2.29}
{"Compound": "COc1cc2ccc(=O)oc2c(OC)c1OC", "inhibition, %": 1.65}
{"Compound": "CCOC(=O)c1c(C)cc(O)cc1O", "inhibition, %": 0.669}
{"Compound": "CC(=O)Oc1ccc2c(c1)CCC1C2CCC2(C)C(OC(C)=O)CCC12 (stereo not given)", "inhibition, %": 3.64}
{"Compound": "C[C@@H]1O[C@@H](OC[C@H]2O[C@@H](Oc3c(-c4ccc(OCCO)c(OCCO)c4)oc4cc(OCCO)cc(O)c4c3=O)[C@H](O)[C@@H](O)[C@@H]2O)[C@H](O)[C@H](O)[C@H]1O", "inhibition, %": -5.09}
{"Compound": "NCCCC[C@H](N)C(=O)N[C@@H](Cc1ccccc1)C(=O)N[C@@H](Cc1ccc(O)cc1)C(=O)O (H-Lys-Phe-Tyr-OH)", "inhibition, %": 6.75}
{"Compound": "COc1ccc2c(c1)[C@@]1(C)CCC(=O)C[C@@H]1CC2", "inhibition, %": 3.57}
{"Compound": "COc1ccc(-c2coc3c(OC)c(OC)cc(OC)c3c2=O)cc1", "inhibition, %": 4.09}
{"Compound": "O=c1c(O)c(-c2ccc(O)cc2O)oc2cc(O)cc(O)c12", "inhibition, %": -23.3}
{"Compound": "C=C[C@@](C)(O)CCC1C(=C)C[C@H](O)C2C(C)(C)CCCC12C (stereo not given in full)", "inhibition, %": 15.2}
{"Compound": "CC(=O)NC(Cc1c[nH]c2ccccc12)C(N)=O (stereo not given)", "inhibition, %": -11.6}
{"Compound": "Cc1cc(=O)oc2cc(O)cc(O)c12", "inhibition, %": 3.6}
{"Compound": "C[C@H]1[C@@H](O)O[C@@H]2OC3(C)CC[C@H]4[C@H](C)CC[C@@H]1[C@@]24OO3", "inhibition, %": -22.8}
{"Compound": "CC(C)=CC1C(CO)C1(C)C (stereo not given)", "inhibition, %": 2.26}
{"Compound": "COc1cc2c(cc1O)[C@@H](Cc1ccc(O)cc1)N(C)CC2", "inhibition, %": 0.499}
{"Compound": "C=C1CC[C@@H]2[C@](C)(CO)[C@H](O)CC[C@@]2(C)[C@@H]1C/C=C1/C(=O)OC[C@H]1O", "inhibition, %": -4.69}
{"Compound": "COc1c(-c2ccccc2)oc2c(ccc3occc32)c1=O", "inhibition, %": -3.15}
{"Compound": "CCCCCCCCCCCCCCCC(=O)OC/C=C(C)/C=C/C=C(C)/C=C/C1=C(C)CCCC1(C)C", "inhibition, %": 1.58}
{"Compound": "C[C@]12CCC3c4ccc(OS(=O)(=O)O)cc4CCC3C1CC[C@H]2O (stereo not given in full)", "inhibition, %": 3.17}
{"Compound": "COc1ccc(-c2oc3cc(O[C@@H]4O[C@H](CO)[C@@H](O)[C@H](O)[C@H]4O)c(OC)c(O)c3c(=O)c2OC)cc1O", "inhibition, %": -33.5}

---

Method notes: sensitizers of A549 cells to miR-34 induction, primary screen, imaging, A549 dox-inducible miR-34, nuclei and caspase counts (AID 1347080)
Measurement parameters: A549 miR-34 inducible, Hoechst nuclei count, 48 h; measured here: relative caspase fold change +Dox/-Dox
Decide using fold change alone. Strictly below 2: yes. Equal to or above 2: no.

{"Molecule": "O=C1OC2(c3ccc(O)cc3Oc3cc(O)ccc32)c2ccccc21", "Label": "no"}
{"Molecule": "C[C@@H]1O[C@@H](O[C@H]2[C@H](Oc3cc(O)c4c(c3)O[C@H](c3ccc(O)cc3)CC4=O)O[C@H](CO)[C@@H](O)[C@@H]2O)[C@H](O)[C@H](O)[C@H]1O", "Label": "yes"}
{"Molecule": "COc1cc(C=O)ccc1O", "Label": "yes"}
{"Molecule": "CCN(C)C(=O)Oc1cccc([C@H](C)N(C)C)c1", "Label": "yes"}
{"Molecule": "O=C(O)c1cc(=O)c2ccc(Cl)cc2[nH]1", "Label": "yes"}
{"Molecule": "NCCSSCCN", "Label": "no"}
{"Molecule": "NCCNCCNCCN", "Label": "no"}
{"Molecule": "NCC[C@H](O)C(=O)N[C@@H]1C[C@H](N)[C@@H](O[C@H]2O[C@H](CN)[C@@H](O)[C@H](O)[C@H]2O)[C@H](O)[C@H]1O[C@H]1O[C@H](CO)[C@@H](O)[C@H](N)[C@H]1O", "Label": "yes"}
{"Molecule": "CCC(=O)NCC[C@@H]1CCc2ccc3c(c21)CCO3", "Label": "no"}
{"Molecule": "CN(C(=O)c1c(O)c2ccccc2n(C)c1=O)c1ccccc1", "Label": "yes"}

---

Method notes: Cy5 fluorescence interference with SSB-bound oligo, artefact control for HCV NS3 helicase inhibitor project, biochemical, NIH Clinical Collection, E. coli SSB (AID 743268)
Kindly return Fulfilled if reported fluorescence ratio is no lower than 1; return Not fulfilled if it is lower.

{"Compound": "Cc1cccc(C)c1NC(=O)C1CCCCN1C (stereo not drawn)", "Label": "Not fulfilled"}
{"Compound": "CN(C)CCC(c1ccc(Cl)cc1)c1ccccn1 (stereo not drawn)", "Label": "Fulfilled"}
{"Compound": "CC(CCc1ccccc1)NCC(O)c1ccc(O)c(C(N)=O)c1 (stereo not drawn)", "Label": "Fulfilled"}
{"Compound": "CC(C)NCC(O)COc1ccc(CC(N)=O)cc1 (stereo not drawn)", "Label": "Fulfilled"}
{"Compound": "CC(=O)OCC(=O)[C@@]1(O)CC[C@H]2[C@@H]3CCC4=CC(=O)CC[C@]4(C)[C@H]3[C@@H](O)C[C@@]21C", "Label": "Not fulfilled"}
{"Compound": "CN/C(=C\\[N+](=O)[O-])NCCSCc1ccc(CN(C)C)o1", "Label": "Not fulfilled"}
{"Compound": "CC[C@H]1OC(=O)[C@H](C)[C@@H](O[C@H]2C[C@@](C)(OC)[C@@H](O)[C@H](C)O2)[C@H](C)[C@@H](O[C@@H]2O[C@H](C)C[C@H](N(C)C)[C@H]2O)[C@](C)(OC)C[C@@H](C)C(=O)[C@H](C)[C@@H](O)[C@]1(C)O", "Label": "Fulfilled"}
{"Compound": "CC#C[C@]1(O)CC[C@H]2[C@@H]3CCC4=CC(=O)CCC4=C3[C@@H](c3ccc(N(C)C)cc3)C[C@@]21C", "Label": "Not fulfilled"}
{"Compound": "COCCCOc1ccnc(CS(=O)c2nc3ccccc3[nH]2)c1C (stereo not drawn)", "Label": "Not fulfilled"}
{"Compound": "CC(C)[N+]1(C)C2CCC1CC(OC(=O)C(CO)c1ccccc1)C2 (stereo not drawn)", "Label": "Fulfilled"}
{"Compound": "CNCCCN1c2ccccc2CCc2ccccc21", "Label": "Not fulfilled"}
{"Compound": "CN(C)C(=O)C(CCN1CCC(O)(c2ccc(Cl)cc2)CC1)(c1ccccc1)c1ccccc1", "Label": "Fulfilled"}
{"Compound": "O=C(NCC1CCCCN1)c1cc(OCC(F)(F)F)ccc1OCC(F)(F)F (stereo not drawn)", "Label": "Fulfilled"}

---

Assayed system: L-lactate dehydrogenase (Plasmodium falciparum (isolate CDC / Honduras)) (UniProt Q27743)
Sequence (Q27743 whole entry, looked up): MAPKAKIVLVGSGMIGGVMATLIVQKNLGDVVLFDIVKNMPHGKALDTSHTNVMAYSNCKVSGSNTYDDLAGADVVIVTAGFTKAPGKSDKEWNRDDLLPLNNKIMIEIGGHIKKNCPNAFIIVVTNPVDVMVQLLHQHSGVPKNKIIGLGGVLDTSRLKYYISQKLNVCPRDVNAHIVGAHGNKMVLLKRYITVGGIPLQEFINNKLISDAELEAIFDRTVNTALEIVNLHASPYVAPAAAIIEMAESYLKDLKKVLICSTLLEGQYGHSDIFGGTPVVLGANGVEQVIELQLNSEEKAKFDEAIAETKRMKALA
Method notes: PfLDH activity inhibition – cell lysate, 3D7 strain, counter-screen for P. falciparum growth inhibition project (AID 2304);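 also: 0% = vehicle and 100% = reference inhibitor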
Measurement parameters: P. falciparum 3D7 crude extract, LDH APAD/NBT absorbance; at 2 µM; stronger effect = higher value
inhibition by entry:

{"Compound": "COc1ccc(-n2ccnc2SCC(=O)Nc2cc(C)ccc2C)c(OC)c1", "inhibition / %": -3}
{"Compound": "CCc1cc(I)c2c(c1)C(NCCCNc1cc(=O)c3ccccc3[nH]1)CCN2 (stereo not drawn)", "inhibition / %": -1}
{"Compound": "CC(=O)Nc1ccc(CN2Cc3ccc(NC(=O)Nc4ccc(Oc5ccccc5)cc4)cc3C2)s1", "inhibition / %": 6}
{"Compound": "O=C(/C=C/c1ccc(Cl)c(Cl)c1)NC1CCC(CN2CCC(c3c[nH]c4ccncc34)CC2)CC1 (stereo not drawn)", "inhibition / %": -1}
{"Compound": "c1ccc(COc2ccc(C3CCCCC3)cc2)nc1", "inhibition / %": 0}
{"Compound": "O=C(Nc1ccc(C(F)(F)F)cc1)Nc1ccccc1N1CCNCC1", "inhibition / %": 4}
{"Compound": "O=C1C(c2ccccc2)=C(Nc2cc(Cl)cc(Cl)c2)c2ccccc21", "inhibition / %": -3}
{"Compound": "COc1ccc2nccc([C@@H](O)CN3CCC(NCc4ccc5c(c4)nnn5C(C)C)CC3)c2c1", "inhibition / %": 0}
{"Compound": "COc1ccc(NC(=O)c2cc(-c3ccc(NC(C)=O)cc3)cnc2N)cc1", "inhibition / %": 4}
{"Compound": "CN(C)CCNC(=O)N1CCCN(c2ncnc3cc(-c4ccccc4)sc23)CC1", "inhibition / %": 5}
{"Compound": "Oc1ccc(Cl)cc1CN1CCCC(COC(c2ccc(F)cc2)c2ccc(F)cc2)C1 (stereo not drawn)", "inhibition / %": 3}
{"Compound": "O=C(Nc1cc(Cl)c(Cl)cc1NC(=O)c1cccc(-c2ccccc2)c1O)c1cccc(-c2ccccc2)c1O", "inhibition / %": 2}
{"Compound": "COc1cccc(NC(=O)c2ccc(NCCCN3CC(C)CC(C)C3)c([N+](=O)[O-])c2)c1 (stereo not drawn)", "inhibition / %": -4}
{"Compound": "CC1(CCc2ccccc2)N=C(N)N=C(N)C1c1ccc(Cl)c(Cl)c1 (stereo not drawn)", "inhibition / %": -8}
{"Compound": "CN(C)C(=O)C(CC(=O)NCc1ccccc1Cl)N(C)C (stereo not drawn) (tested in a mixture with another compound)", "inhibition / %": -3}
{"Compound": "COc1cc(F)c2ncc(Cl)c([C@H](O)CN3CCC(NCc4cc5c(cn4)OCCO5)CC3)c2c1", "inhibition / %": 4}
{"Compound": "CCNc1cc(C(=O)N[C@@H](Cc2ccccc2)[C@H](O)CNCCc2ccccc2)cc(N2CCCC2=O)c1", "inhibition / %": 2}
{"Compound": "Cc1ccc2c(NN=Cc3cccc(F)c3)cc(C)nc2c1", "inhibition / %": -2}
{"Compound": "O=C(Nc1cccc(CN2CCN(Cc3ccc(O)cc3)CC2)c1)c1ccc(Cl)c(Cl)c1", "inhibition / %": 2}
{"Compound": "COc1ccc(NC(=O)N2CCN(CCCCCNC(=O)/C=C/c3ccc(C(F)(F)F)cc3)CC2)cc1Cl", "inhibition / %": -2}
{"Compound": "FC(F)(F)c1cccc(C=NNc2nc3ccccc3[nH]2)c1", "inhibition / %": 0}
{"Compound": "CCc1cn(CC(=O)N(CCOc2ccc(-c3ccc(C(F)(F)F)cc3)cc2)CCN(CC)CC)c(SCc2ccc(F)cc2)nc1=O", "inhibition / %": -3}
{"Compound": "c1ccc(CN2CCC(NCc3ccc(-c4ccc(CNC5CCCC5)cc4)cc3)CC2)cc1", "inhibition / %": -4}
{"Compound": "COc1ccc2ncc(F)c(CCN3CCC(CNC(=O)C(=O)c4c[nH]c5ccccc45)CC3)c2n1", "inhibition / %": -6}
{"Compound": "Nc1nc(NCC2CCC(CNS(=O)(=O)c3cccc4ccccc34)CC2)nc2ccccc12 (stereo not drawn)", "inhibition / %": 7}
{"Compound": "CC(C)(C)c1ccc(N2C(N)=NC(N)=NC2(C)C)cc1", "inhibition / %": -2}
{"Compound": "Cc1cc(N[C@@H](Cc2ccccc2)C(=O)NCCc2ccccc2)nc(NCCc2ccc(F)cc2)n1", "inhibition / %": 2}
{"Compound": "CC(C)Oc1ccc2c(c1)OC(c1ccccc1)(C(F)(F)F)NC2=O (stereo not drawn)", "inhibition / %": -2}
{"Compound": "CCCOc1cccc(C(=O)N[C@@H](Cc2ccccc2)[C@H](O)CNCc2cccc(OC)c2)c1", "inhibition / %": -3}
{"Compound": "O=C(Nc1ccc(Oc2ccc(OC(F)(F)F)cc2)cc1)c1ccco1", "inhibition / %": -1}
{"Compound": "CCc1nc2c(N)nc(N)nc2nc1-c1ccc(OC)cc1", "inhibition / %": 2}
{"Compound": "COc1ccc(CNCc2ccc(F)cc2)cc1-c1ccc(OC)c(S(=O)(=O)NCCN2CCCC2)c1", "inhibition / %": 5}
{"Compound": "CCN(CC)c1cc(C)c2cc(NC(=O)c3cc(=O)c4ccccc4o3)ccc2n1", "inhibition / %": 1}
{"Compound": "Cc1cc(C2CCN(CCCCNC(=O)c3ccc(NC(=O)c4ccc(Cl)cc4)cc3)CC2)c(C)cc1OCc1cccnc1", "inhibition / %": 0}
{"Compound": "O=C(NCCCCN1CC[C@@H]2c3cccc(O)c3CC[C@H]21)c1ccc(-c2ccccc2)cc1", "inhibition / %": 2}
{"Compound": "CN1CCCN(Cc2ccc(-c3cccc(NC(=O)c4ccc(F)cc4)c3)cc2)CC1", "inhibition / %": 1}
{"Compound": "N#CC(c1ccc(Br)cc1)c1ccc2c(C(F)(F)F)cc(C(F)(F)F)nc2n1 (stereo not drawn)", "inhibition / %": -2}
{"Compound": "C[C@@H]1CN(c2nc(NCCc3ccc(O)cc3)nc(NCc3ccccc3-c3ccc(C(F)(F)F)cc3)n2)C[C@H](C)N1", "inhibition / %": 7}
